Quick list: pKd per entry.
Target: Pin1 (Homo sapiens, UniProt Q13526, S16A/Y23A)
Construct: The full-length human S16A/Y23A mutant Pin1 was expressed and purified from E. coli; made in house
Test: Pin1 binding by FA (FITC-labeled peptides)
Details: FITC-labeled peptide, FA; read-out: KD
// pKd here means minus log10 of the molar concentration (mol/L)

Qu. Find the measured pKd of bicyclo[Tm-(D-4-Phe-Fpa-D-homoGlu-Pip-Nal-Arg-Ala-D-Phe)-Dap-(Phe-Nal-Arg-Arg-Arg-Arg-Dap)]-Lys [Peptide 41] and report it.
Ans. 6.06

Qu. # return recorded pKd for input bicyclo[Tm-(D-4-Phe-Fpa-D-Nle-Pip-Nal-Arg-Ala-D-Phe)-Dap-(Phe-Nal-Arg-Arg-Arg-Arg-Dap)]-Lys [Peptide 40]
Ans. 6.15

Qu. Using the record for bicyclo[Tm-(D-4-Phe-Fpa-D-Ile-Pip-Nal-Arg-Ala-D-Phe)-Dap-(Phe-Nal-Arg-Arg-Arg-Arg-Dap)]-Lys [Peptide 39] , state its measured pKd.
Ans. 6.34

* * *

Items are presented alongside their recorded Mean fluorescence intensity (MFI) of CAP.
Tested on: HeLa cells
Test: Cytoplasmic delivery of pCAP-containing peptides, flow cytometry
Conditions: 10 μM peptide, 2 h
Non-standard residues stand in square brackets, D forms with d. No end group written: not given here. Ala(7-OPO3H2-coumarin-4-yl) = N[C@@H](Cc1cc(=O)oc2cc(OP(=O)(O)O)ccc12)C(=O)O; AEEA = NCCOCCOCC(=O)O
Express the result in AU but write the number alone.

Qu. Please give measured Mean fluorescence intensity (MFI) of CAP of the following entry: RKKRRQRRR-miniPEG-DE(pCAP)LI (RKKRRQRRR[AEEA]DE[Ala(7-OPO3H2-coumarin-4-yl)]LI) [Tat-PCP, reference compound]
Ans. 290

Qu. Using known records, supply Mean fluorescence intensity (MFI) of CAP for RRRRRRRRR-miniPEG-DE(pCAP)LI (RRRRRRRRRXDEXLI; miniPEG linker, pCAP residue; (10)..(10) 8-amino-3,6-dioxaoctanoic acid; (13)..(13) phosphocoumaryl amino propionic acid) [Peptide R9-PCP, reference compound]
Ans. 960

Qu. Recall and state the measured Mean fluorescence intensity (MFI) of CAP for RQIKIWFQNRRMKWKK-miniPEG-DE(pCAP)LI (RQIKIWFQNRRMKWKKXDEXLI; miniPEG linker; pCAP residue; (17)..(17) 8-amino-3,6-dioxaoctanoic acid; (20)..(20) phosphocoumaryl amino propionic acid) [Antp-PCP, reference compound] .
Ans. 400

Others:
Qu. Provide Mean fluorescence intensity (MFI) of CAP value for the following substance: Ac-DE(pCap)LI-NH2 (Ac-DE[Ala(7-OPO3H2-coumarin-4-yl)]LI-NH2; SMILES CC[C@H](C)[C@H](NC(=O)[C@H](CC(C)C)NC(=O)[C@H](Cc1cc(=O)oc2cc(OP(=O)(O)O)ccc12)NC(=O)[C@H](CCC(=O)O)NC(=O)[C@H](CC(=O)O)NC(C)=O)C(N)=O) [untagged PCP, reference compound]
Ans. 30

* * *

Experiment: Serum stability test (25% human serum)
Assay type: in vitro ADME
Conditions: 37° C.
endpoint name: half-life

Qu. Give me measured half-life, please, for this molecule: `N=C(N)NCCC[C@H](NC(=O)[C@H](CCCNC(=N)N)NC(=O)[C@H](CCCNC(=N)N)NC(=O)[C@H](CCC(N)=O)NC(=O)[C@H](CCCNC(=N)N)NC(=O)[C@H](CCCNC(=N)N)NC(=O)[C@H](CCCCN)NC(=O)[C@H](CCCCN)NC(=O)[C@H](CCCNC(=N)N)NC(=O)CNC(=O)[C@@H](N)Cc1ccc(O)cc1)C(N)=O`
Ans. ~30 min
